Data credit: patent US20180201609A1

# SYSTEM_UNDER_TEST: IRAK-4 enzyme (Homo sapiens, UniProt Q9NWZ3)
# Construct: purchased Millipore, USA
# Sequence (Q9NWZ3 1-460): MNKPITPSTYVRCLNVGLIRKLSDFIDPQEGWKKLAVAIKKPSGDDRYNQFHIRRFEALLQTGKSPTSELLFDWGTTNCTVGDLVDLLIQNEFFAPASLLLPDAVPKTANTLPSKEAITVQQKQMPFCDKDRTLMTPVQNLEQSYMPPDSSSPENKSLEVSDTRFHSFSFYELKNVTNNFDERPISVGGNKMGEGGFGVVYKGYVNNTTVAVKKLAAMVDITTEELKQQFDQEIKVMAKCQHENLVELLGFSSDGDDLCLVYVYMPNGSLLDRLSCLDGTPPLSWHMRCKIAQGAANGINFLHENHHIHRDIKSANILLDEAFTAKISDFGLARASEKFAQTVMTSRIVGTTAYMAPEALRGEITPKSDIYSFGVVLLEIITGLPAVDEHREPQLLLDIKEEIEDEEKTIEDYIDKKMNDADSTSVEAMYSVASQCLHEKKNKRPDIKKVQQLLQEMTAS
# PROTOCOL: IRAK-4 Biochemical Assay (TR-FRET)
# REPORTED_CONDITIONS: 0.1 μM compound, recombinant IRAK-4 kinase, 20 μM ATP
Structures can show the parent of a compound that is named as a salt.
METRIC_NAME: inhibition at 0.1 µM (%)

[
  {
    "COMPOUND": "Cc1nn(C)c2cc(N3CCC(CO)CC3)c(NC(=O)c3coc(-c4cc(N)ncc4Cl)n3)cc12 [Example 38, hydrochloride]",
    "inhibition at 0.1 µM (%)": 50
  },
  {
    "COMPOUND": "Cc1c2cc(NC(=O)c3coc(-c4ccnc(N)c4)n3)c(N3CCCCC3)nc2nn1C [Example 27]",
    "inhibition at 0.1 µM (%)": 97
  },
  {
    "COMPOUND": "Cn1cc2cc(NC(=O)c3cc(N4CCC(O)C4)ccn3)c(C3CC3)cc2n1 (stereo not shown) [Example 71, hydrochloride]",
    "inhibition at 0.1 µM (%)": 67
  },
  {
    "COMPOUND": "Cc1nn(C)c2cc(N3CCC(CO)CC3)c(NC(=O)c3cccc(-c4ccc(N)nc4)n3)cc12 [Example 37, hydrochloride]",
    "inhibition at 0.1 µM (%)": 14
  },
  {
    "COMPOUND": "Cn1cc2cc(NC(=O)c3coc(-c4ccnc(N)c4)n3)c(N3CCCCC3)nc2n1 [Example 24]",
    "inhibition at 0.1 µM (%)": 99
  },
  {
    "COMPOUND": "Cn1cc2cc(NC(=O)c3ccc(N4CCC(O)C4)cn3)c(N3CCCCC3)cc2n1 (stereo not shown) [Example 73]",
    "inhibition at 0.1 µM (%)": 10
  }
]

a. Cc1nn(C)c2cc(N3CCC(CO)CC3)c(NC(=O)c3coc(-c4cc(F)c(=O)n(C)c4)n3)cc12 [Example 11, hydrochloride]
b. Cn1cc2cc(NC(=O)c3coc(-c4cccc(N)n4)n3)c(N3CCCCC3)cc2n1 [Example 41]
// query Lab note: check whether a or b shows the higher recorded inhibition at 0.1 µM. Please identify the chosen entry by its label.
// result b
(b: 96%, a: 26%)
